Catalogue of IC50 values
- system: hPin1 (Protein interacting with NIMA (-kinase)) (Homo sapiens)
- Sequence (Q13526 whole entry): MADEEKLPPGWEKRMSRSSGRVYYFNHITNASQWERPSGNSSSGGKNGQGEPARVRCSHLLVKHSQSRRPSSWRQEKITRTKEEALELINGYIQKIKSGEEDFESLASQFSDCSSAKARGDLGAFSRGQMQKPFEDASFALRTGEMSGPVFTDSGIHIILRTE
- method.notes: protease-coupled PPIase assay, hPin1
- Assay type: biochemical
- test.context: hPin1 6 nM; substrate Ac-Ala-Ala-Ser(PO3H2)-Pro-Arg-pNA, trypsin; 35 mM HEPES pH 7.8, 6° C.; read-out: Specificity of the inhibition with rotamases, Target T-1 (IC50 class)

O=C(NC(Cc1ccc2ccccc2c1)c1ccccn1)[C@@H]1CCCCN1C(=O)CSCP(=O)(O)O (stereo partly shown); < 1 µM
CC(=O)N[C@@H](Cc1csc2ccccc12)C(=O)N[C@@H](CSCP(=O)(O)O)CN1CCCC[C@H]1C(=O)N[C@@H](Cc1ccc2ccccc2c1)C(N)=O; < 1 µM
COc1cccc(CC(=O)N[C@@H](CSCP(=O)(O)O)C(=O)N2CCCC[C@H]2C(=O)N[C@@H](Cc2ccc3ccccc3c2)C(N)=O)c1; < 1 µM
O=C(Nc1ccccc1)[C@@H]1CCCCN1C(=O)CSCP(=O)(O)O; 1 to 10 µM
NC(=O)[C@H](Cc1ccc2ccccc2c1)NC(=O)[C@@H]1CCCCN1C(=O)[C@H](CSCP(=O)(O)O)NC(=O)CCc1cccs1; 1 to 10 µM

Exercise: Which measured IC50 value corresponds to NC(=O)[C@H](Cc1ccc2ccccc2c1)NC(=O)[C@@H]1CCCCN1C(=O)[C@H](CSCP(=O)(O)O)NC(=O)CCc1ccccc1 ?
Solution: < 1 µM

Exercise: Which measured IC50 value corresponds to COc1ccc(NC(=O)CC(SCP(=O)(O)O)C(=O)N2CCCC[C@H]2C(=O)N[C@@H](Cc2ccc3ccccc3c2)C(N)=O)cc1 (mixture of isomers) ?
Solution: < 1 µM
